Please provide measured IC50, SK-BR3 viability, MMAF conjugate, with 0.6 uM holo-human transferrin for the entries that follow.
Target: CD71 on SK-BR-3 cells (human, UniProt P02786 1-760)
Sequence (P02786 whole entry): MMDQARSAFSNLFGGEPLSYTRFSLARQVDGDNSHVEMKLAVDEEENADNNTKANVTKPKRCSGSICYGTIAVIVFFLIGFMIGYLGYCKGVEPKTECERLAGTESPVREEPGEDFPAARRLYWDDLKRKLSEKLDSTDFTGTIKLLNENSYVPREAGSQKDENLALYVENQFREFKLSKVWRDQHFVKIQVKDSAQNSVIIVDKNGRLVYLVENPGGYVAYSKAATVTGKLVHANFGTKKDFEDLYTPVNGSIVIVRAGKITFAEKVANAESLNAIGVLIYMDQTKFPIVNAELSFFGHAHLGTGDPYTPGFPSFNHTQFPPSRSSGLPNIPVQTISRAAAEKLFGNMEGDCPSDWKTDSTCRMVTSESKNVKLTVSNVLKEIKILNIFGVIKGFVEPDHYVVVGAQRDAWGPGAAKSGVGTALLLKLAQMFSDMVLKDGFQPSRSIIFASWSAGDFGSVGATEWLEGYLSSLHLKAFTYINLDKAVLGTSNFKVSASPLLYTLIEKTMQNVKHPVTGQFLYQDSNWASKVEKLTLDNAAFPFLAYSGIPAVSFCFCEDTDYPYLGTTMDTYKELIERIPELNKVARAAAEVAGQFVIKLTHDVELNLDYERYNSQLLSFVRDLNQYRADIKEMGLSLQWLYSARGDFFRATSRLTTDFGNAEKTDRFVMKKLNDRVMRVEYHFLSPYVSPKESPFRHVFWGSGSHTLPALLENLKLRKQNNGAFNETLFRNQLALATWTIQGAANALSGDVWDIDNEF
Experiment: cell-based or functional assay

IN: Could you share which IC50, SK-BR3 viability, MMAF conjugate, with 0.6 uM holo-human transferrin value was measured for SEQ ID NO 38 (designed binder, FN3 domain) MLPAPKNLVVSRVTEDSARLSWTAPDAAFDSFHIAYEESHTTGEAIFLRVPGSERSYDLTGLKPGTEYSVSIEGVKGGHYSPPLTAKFTT ?
OUT: ~120 nM

IN: Query (binder): SEQ ID NO 43 (designed binder, FN3 domain) MLPAPKNLVVSRVTEDSARLSWTAPDAAFDSFYIEYYESYPGGEAIVLTVPGSERSYDLTGLKPGTEYDVYIYGVKGGYWSRPLSAIFTT ; field requested: IC50, SK-BR3 viability, MMAF conjugate, with 0.6 uM holo-human transferrin
OUT: ~80 nM

IN: Return reported IC50, SK-BR3 viability, MMAF conjugate, with 0.6 uM holo-human transferrin; argument: SEQ ID NO 46 (designed binder, FN3 domain) MLPAPKNLVVSRVTEDSARLSWTAPDAAFDSFTIEYFEFTGTGEAIVLTVPGSERSYDLTGLKPGTEYYVSIYGVKGGLLSAPLSAIFTT
OUT: ~100 nM
